target: T1, human IL-17A (human, UniProt Q16552 24-155, biotinylated with Sulfo-NHS-LC-Biotin in the AlphaScreen assays only)
T1 construct: also called hIL-17A; recombinant human IL-17A
T1 sequence (Q16552 other isoform, or with tags, fused parts or gaps): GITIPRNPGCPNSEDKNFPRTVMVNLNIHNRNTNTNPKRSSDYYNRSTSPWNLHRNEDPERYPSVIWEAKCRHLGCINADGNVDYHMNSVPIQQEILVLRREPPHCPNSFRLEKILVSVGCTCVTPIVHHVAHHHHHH
assay remarks: SPR Biacore, hIL-17A on chip; purified protein
parameter measured: koff (s⁻¹)
Field: numeric (s⁻¹). Do not append units.

Ask: Which koff value belongs to 13E05 (VHH, Class 4 Nanobody (cross-reactive: anti-IL-17A, IL-17F and IL-17A/F); not shown: c-myc, His6 tag) VHH: EVQLVESGGGKVQAGDSLTLSCVASGGTFSNYAAWFRQAPGKDRRELVVSIFRTGSITYTADSVKGRFTASRVNTKNTVYLQMNSLKPEDTAVYYCASAYNPGVGYDYWGQGTQVTVSS ?
Reply: 0.0016

Ask: Sample 11C08 (VHH, Class 4 Nanobody (cross-reactive: anti-IL-17A, IL-17F and IL-17A/F); not shown: c-myc, His6 tag) VHH: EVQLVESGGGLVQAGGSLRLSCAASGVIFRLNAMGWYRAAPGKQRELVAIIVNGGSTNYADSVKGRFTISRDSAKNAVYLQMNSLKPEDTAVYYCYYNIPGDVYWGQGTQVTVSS — what was its koff?
Reply: 0.0079

Ask: Given the binder 13E02 (VHH, Class 4 Nanobody (cross-reactive: anti-IL-17A, IL-17F and IL-17A/F); also called IL17MS13E02; not shown: c-myc, His6 tag) VHH: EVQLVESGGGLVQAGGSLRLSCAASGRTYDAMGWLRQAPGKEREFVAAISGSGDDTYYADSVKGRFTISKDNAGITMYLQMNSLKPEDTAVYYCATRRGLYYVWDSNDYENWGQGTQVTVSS , what is its reported koff?
Reply: 0.00013

Ask: May I ask what koff has been recorded for 04B10 (VHH, Class 2 Nanobody (anti-IL-17A and IL-17A/F); not shown: c-myc, His6 tag) VHH: EVQLVESGGGLVQAGGSQSLSCVASGTIVNINVMGWYRQAPGKQRELVALITSGGGTTYGDSVKGRFTISIDNAKNTVILQMNSLEAEDTAVYYCAAEIGYYSGGTYFSSEAHWGQGTQVTVSS ?
Reply: 0.0004

Ask: What does the record list as koff for 02A08 (VHH, Class 2 Nanobody (anti-IL-17A and IL-17A/F); not shown: c-myc, His6 tag) VHH: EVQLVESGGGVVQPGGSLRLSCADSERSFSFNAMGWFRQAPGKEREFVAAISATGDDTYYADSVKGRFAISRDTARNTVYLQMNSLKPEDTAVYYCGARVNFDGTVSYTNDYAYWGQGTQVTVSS ?
Reply: 0.00042

Ask: Recorded koff for 02A10 (VHH, Class 2 Nanobody (anti-IL-17A and IL-17A/F); not shown: c-myc, His6 tag) VHH: EVQLVESGGGLVQPGGSLRLSCAASGFALGYYAIGWFRQAPGKEREGVSCDSSSDGRTYYGDSVKGRFTISTDSAKNTVYLQMNSLKPEDTAVYYCATCTDFEYDYWGQGTQVTVSS , please?
Reply: 0.00022

Ask: Tell me the measured koff of 03C07 (VHH, Class 2 Nanobody (anti-IL-17A and IL-17A/F); not shown: c-myc, His6 tag) VHH: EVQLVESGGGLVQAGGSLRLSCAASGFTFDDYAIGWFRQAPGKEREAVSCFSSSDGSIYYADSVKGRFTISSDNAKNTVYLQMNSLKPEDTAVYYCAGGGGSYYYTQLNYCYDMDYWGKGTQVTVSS , please.
Reply: 0.0002

Ask: koff for 04G01 (VHH, Class 2 Nanobody (anti-IL-17A and IL-17A/F); also called IL17MS04G01; not shown: c-myc, His6 tag) VHH: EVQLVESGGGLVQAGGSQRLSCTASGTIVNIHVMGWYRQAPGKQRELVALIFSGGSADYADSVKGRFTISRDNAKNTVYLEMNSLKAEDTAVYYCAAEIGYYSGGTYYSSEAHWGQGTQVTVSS ?
Reply: 0.00018
